# targetSystem: von Hippel-Lindau disease tumor suppressor/Vascular endothelial growth factor receptor 2 (Homo sapiens, UniProt P35968+P40337)
# Sequence (P35968 whole entry): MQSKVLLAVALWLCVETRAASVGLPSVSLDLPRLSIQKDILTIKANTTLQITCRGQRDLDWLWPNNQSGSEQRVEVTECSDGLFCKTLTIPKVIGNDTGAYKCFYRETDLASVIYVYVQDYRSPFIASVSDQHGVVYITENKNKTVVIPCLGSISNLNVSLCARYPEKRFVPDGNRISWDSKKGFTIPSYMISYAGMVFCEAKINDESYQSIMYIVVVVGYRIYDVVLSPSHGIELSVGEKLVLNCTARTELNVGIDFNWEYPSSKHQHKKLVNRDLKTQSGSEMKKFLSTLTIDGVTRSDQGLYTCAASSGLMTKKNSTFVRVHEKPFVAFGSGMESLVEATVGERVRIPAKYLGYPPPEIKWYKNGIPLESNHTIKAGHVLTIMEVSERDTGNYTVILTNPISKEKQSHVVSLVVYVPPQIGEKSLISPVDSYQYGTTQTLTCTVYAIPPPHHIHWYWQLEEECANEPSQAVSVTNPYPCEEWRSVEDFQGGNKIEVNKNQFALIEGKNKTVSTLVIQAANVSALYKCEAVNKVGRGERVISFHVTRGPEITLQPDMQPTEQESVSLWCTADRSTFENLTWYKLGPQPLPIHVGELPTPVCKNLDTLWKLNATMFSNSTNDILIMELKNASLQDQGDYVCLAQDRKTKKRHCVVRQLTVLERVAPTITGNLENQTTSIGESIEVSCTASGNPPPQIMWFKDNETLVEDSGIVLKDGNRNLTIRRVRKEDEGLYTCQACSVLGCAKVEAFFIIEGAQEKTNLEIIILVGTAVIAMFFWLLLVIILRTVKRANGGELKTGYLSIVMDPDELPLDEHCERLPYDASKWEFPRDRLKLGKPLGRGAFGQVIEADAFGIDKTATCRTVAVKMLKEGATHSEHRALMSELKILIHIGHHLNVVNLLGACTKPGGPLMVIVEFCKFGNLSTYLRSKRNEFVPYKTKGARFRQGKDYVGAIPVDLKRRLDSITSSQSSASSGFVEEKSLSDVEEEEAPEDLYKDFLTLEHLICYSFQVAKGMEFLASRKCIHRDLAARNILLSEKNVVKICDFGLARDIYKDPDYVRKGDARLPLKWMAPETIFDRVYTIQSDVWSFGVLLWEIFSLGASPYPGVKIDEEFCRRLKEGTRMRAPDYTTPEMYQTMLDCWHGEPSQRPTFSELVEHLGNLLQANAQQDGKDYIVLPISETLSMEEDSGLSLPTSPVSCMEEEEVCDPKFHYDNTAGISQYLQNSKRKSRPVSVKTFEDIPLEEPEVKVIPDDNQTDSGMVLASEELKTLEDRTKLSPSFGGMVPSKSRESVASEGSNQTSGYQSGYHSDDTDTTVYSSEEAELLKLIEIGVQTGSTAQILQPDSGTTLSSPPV
# Sequence (P40337 whole entry): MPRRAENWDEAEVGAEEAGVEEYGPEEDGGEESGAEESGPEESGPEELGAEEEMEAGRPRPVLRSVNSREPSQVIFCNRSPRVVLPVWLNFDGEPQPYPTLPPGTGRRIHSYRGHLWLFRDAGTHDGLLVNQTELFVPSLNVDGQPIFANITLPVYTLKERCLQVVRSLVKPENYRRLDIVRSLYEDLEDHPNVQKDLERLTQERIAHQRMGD
# measurementProtocol: Protac activity at VHL E3 ubiquitin ligase/VEGFR-2 (unknown origin) assessed as […] by ADP-Glo Kinase assay
For each of the molecules below, state its IC50.
Numbers only, in nM.

A selection of reference data follows.
[[record]]
structuresmiles = "Cc1ncsc1-c1ccc(CNC(=O)[C@@H]2C[C@@H](O)CN2C(=O)[C@@H](NC(=O)CCCCCC(=O)n2nc(N)c3c(-c4cccc(NC(=O)Nc5cccc(Cl)c5)c4)cccc32)C(C)(C)C)cc1"
quantity = "IC50"
unitspec = "nM"
observed = 42.2

[[record]]
structuresmiles = "Cc1ncsc1-c1ccc(CNC(=O)[C@@H]2C[C@@H](O)CN2C(=O)[C@@H](NC(=O)CCCCCCCCCCC(=O)n2nc(N)c3c(-c4cccc(NC(=O)Nc5cccc(Cl)c5)c4)cccc32)C(C)(C)C)cc1"
quantity = "IC50"
unitspec = "nM"
observed = 7.07


Let's switch to this molecule now.
Ask: Looking for the measured IC50 of Cc1ncsc1-c1ccc(CNC(=O)[C@@H]2C[C@@H](O)CN2C(=O)[C@@H](NC(=O)CCCCCCCCCCCCCCC(=O)n2nc(N)c3c(-c4cccc(NC(=O)Nc5cccc(Cl)c5)c4)cccc32)C(C)(C)C)cc1 , can you help?
Reply: 2.12
